Recorded values, source ChEMBL document CHEMBL4513216.

Recorded measurements of cytotoxicity at 10 µM, one per entry
Experiment: Toxicity liver stage against HepG2, at 10uM
Format: cell-based
Parameters: test concentration 10 uM, cell line HepG2-A16-CD81EGFP
Conditions: human, HepG2-A16-CD81EGFP cells; read-out: INHIBITION

[
  {
    "compound": "CCS(=O)(=O)N1CC[C@H]2OCC[C@@]2(c2nnc(C)o2)C1",
    "cytotoxicity at 10 µM": "7.95%"
  },
  {
    "compound": "c1cc(CN(CCCn2ccnc2)Cc2ccoc2)ccn1",
    "cytotoxicity at 10 µM": "-11.1%"
  },
  {
    "compound": "OC1(CNc2cccc(F)c2)CCNCC1",
    "cytotoxicity at 10 µM": "5.38%"
  },
  {
    "compound": "CCOc1ccccc1C(=O)N1CC(=O)N(C2CCC2)CC(O)C1 (configuration not stated)",
    "cytotoxicity at 10 µM": "2.55%"
  },
  {
    "compound": "O=C(Nc1ccncc1)NC1CCN(c2ccccc2Cl)C1=O (configuration not stated)",
    "cytotoxicity at 10 µM": "-43.6%"
  },
  {
    "compound": "CCN(Cc1ccoc1)C(=O)c1cc(S(N)(=O)=O)c(C)o1",
    "cytotoxicity at 10 µM": "-2.98%"
  },
  {
    "compound": "Cc1nccn1C1CCCN(C(=O)c2ccc(N(C)C)nc2)C1 (configuration not stated)",
    "cytotoxicity at 10 µM": "-7.62%"
  },
  {
    "compound": "Cc1cc(C)c(C(=O)Nc2cccc(CN3CCC(CO)CC3)c2)o1",
    "cytotoxicity at 10 µM": "-140%"
  },
  {
    "compound": "CCCc1n[nH]cc1C(=O)NCC1COc2cc(OC)ccc2C1 (configuration not stated)",
    "cytotoxicity at 10 µM": "-0.506%"
  },
  {
    "compound": "CN1C(=N)NC(=O)/C1=C\\c1ccc(-c2ccc(F)cc2)o1",
    "cytotoxicity at 10 µM": "13.5%"
  },
  {
    "compound": "CNC(=O)N1CC[C@H]2N(C)CC[C@@]2(C(=O)N2CCOCC2)CC1",
    "cytotoxicity at 10 µM": "-2.72%"
  },
  {
    "compound": "COc1ccc2c(c1)NC(=O)C2OC(=O)CC(C)(C)C (configuration not stated)",
    "cytotoxicity at 10 µM": "2.41%"
  }
]
